Sourced from paper PMC9146934

tested.on: Vd-RDL3 GABAr (Varroa destructor, UniProt A0A343W7T7)
Sequence (A0A343W7T7 31-591): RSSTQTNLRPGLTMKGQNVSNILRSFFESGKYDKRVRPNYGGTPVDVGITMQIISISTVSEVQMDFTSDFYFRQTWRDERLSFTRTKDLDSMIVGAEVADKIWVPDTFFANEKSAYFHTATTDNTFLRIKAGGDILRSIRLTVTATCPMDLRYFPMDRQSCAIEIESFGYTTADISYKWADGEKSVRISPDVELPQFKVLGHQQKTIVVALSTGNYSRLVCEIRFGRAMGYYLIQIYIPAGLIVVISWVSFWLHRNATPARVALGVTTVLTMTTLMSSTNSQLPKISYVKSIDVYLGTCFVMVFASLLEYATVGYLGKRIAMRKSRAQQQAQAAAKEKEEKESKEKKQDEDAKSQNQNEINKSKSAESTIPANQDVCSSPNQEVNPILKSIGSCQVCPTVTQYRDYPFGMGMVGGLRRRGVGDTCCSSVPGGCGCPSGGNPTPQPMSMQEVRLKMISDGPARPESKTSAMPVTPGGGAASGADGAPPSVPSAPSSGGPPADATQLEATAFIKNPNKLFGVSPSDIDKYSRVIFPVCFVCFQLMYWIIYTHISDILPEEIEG
assay.explanation: Two-electrode voltage-clamp of GABA-induced currents, Vd-RDL3 expressed in Xenopus laevis oocytes
condition.description: peak current, oocytes clamped at −60 mV
Method: cRNAs were in vitro synthesized from linearized plasmids using the M-message M-machine transcription kit (Thermo Fisher, Waltham, MA USA) following the manufacturer’s instructions. The cRNA concentration was adjusted to 1 µg/µL. Preparation and injection of X. laevis oocytes were completed as previously described. […] Expressed currents were recorded at room temperature using the two-electrode voltage-clamp method 1–3 days after injection. […]
measurement.label: EC50 (µM)
// return numeric value only (unit: µM, not printed)

So, NCCCC(=O)O [GABA, γ-aminobutyric acid] ? Its EC50 was 43.1
